Tested on: ISC-enriched organoids
Assay: Primary screen, 384-well 2.5-D organoid differentiation (ENR+CD, 6 days, Target Selective Inhibitor Library, vs whole-plate median): ATP (CellTiter-Glo 3D, CTG)
Settings: Dose 2.00 uM; standard z score of FC
Collected Z.CTG values appear next to each entry.

[[record]]
compound = "CS(=O)(=O)c1cccc(CNc2nc(Nc3ccc4c(c3)CCC(=O)N4)ncc2C(F)(F)F)c1"
quantity = "Z.CTG"
observed_measurement = "−1.037"

[[record]]
compound = "c1ccc(CNc2nc(NCc3ccccc3)c3ccccc3n2)cc1"
quantity = "Z.CTG"
observed_measurement = 0.010


// moving on: another record for Z.CTG
-- ask # input compound: CC1=C(C(=O)OC2CCCCC2)C(c2ccc([N+](=O)[O-])cc2)C2=C(CC(C)(C)CC2=O)N1 (centres unmarked) ; wanted: its Z.CTG
-- reply 0.182

Ref: patent US20230398130A1
